Listed here are compounds together with their documented log10(IC50).
assay: Anticancer activity against mouse LL/2 cells assessed as growth inhibition after 48 hrs by MTT assay; format: functional, cell-based; conditions: Lewis lung carcinoma
quantity_measured: log10(IC50) (log10 of the value in µg/mL)

> print(dat)
                                    compound  quantity.measured  result.value
 1  CC(C)(C(=O)NCc1ccccc1)C1C(=O)Nc2cccc(C(=O)NCc3ccc(F)c(Cl)c3)c2NC1=O (stereo unspecified)        log10(IC50)          1.82
 2    O=c1[nH]cc(F)c(=O)[nH]1 [FLUOROURACIL]        log10(IC50)          0.46
 3  CC(C)(C(=O)NCc1ccccc1)C1C(=O)Nc2cccc(C(=O)Nc3ccccc3)c2NC1=O (stereo unspecified)        log10(IC50)          1.47
 4  CC(C)(C(=O)NCc1ccccc1)C1C(=O)Nc2cccc(C(=O)Nc3cccc(Cl)c3)c2NC1=O (stereo unspecified)        log10(IC50)          1.23
 5  CC(C)(C(=O)NCc1ccccc1)C1C(=O)Nc2cccc(C(=O)NCc3cc(F)ccc3F)c2NC1=O (stereo unspecified)        log10(IC50)          1.60
 6  Cc1ccc(CNC(=O)c2cccc3c2NC(=O)C(C(C)(C)C(=O)NCc2ccccc2)C(=O)N3)cc1Cl (stereo unspecified)        log10(IC50)          1.77
 7  CC(C)(C(=O)NCc1ccccc1)C1C(=O)Nc2cccc(C(=O)NCc3ccccc3)c2NC1=O (stereo unspecified)        log10(IC50)          1.69
 8  CC(C)(C(=O)NCc1ccccc1)C1C(=O)Nc2cccc(C(=O)Nc3cccc(F)c3F)c2NC1=O (stereo unspecified)        log10(IC50)          1.52
 9  CC(C)(C(=O)NCc1ccccc1)C1C(=O)Nc2cccc(C(=O)Nc3cc(Cl)ccc3F)c2NC1=O (stereo unspecified)        log10(IC50)          1.29
10  CC(C)(C(=O)NCc1ccccc1)C1C(=O)Nc2cccc(C(=O)Nc3cccc(C(F)(F)F)c3)c2NC1=O (stereo unspecified)        log10(IC50)          1.25
11  CC(C)(C(=O)NCc1ccccc1)C1C(=O)Nc2cccc(C(=O)NCc3cccc(C(F)(F)F)c3)c2NC1=O (stereo unspecified)        log10(IC50)          1.48
